Ref: paper PMC8048867

Assign remaining activity at 200 µM to each entry below.
measured.on: ADAM17 (Homo sapiens)
Sequence (P78536 215-824): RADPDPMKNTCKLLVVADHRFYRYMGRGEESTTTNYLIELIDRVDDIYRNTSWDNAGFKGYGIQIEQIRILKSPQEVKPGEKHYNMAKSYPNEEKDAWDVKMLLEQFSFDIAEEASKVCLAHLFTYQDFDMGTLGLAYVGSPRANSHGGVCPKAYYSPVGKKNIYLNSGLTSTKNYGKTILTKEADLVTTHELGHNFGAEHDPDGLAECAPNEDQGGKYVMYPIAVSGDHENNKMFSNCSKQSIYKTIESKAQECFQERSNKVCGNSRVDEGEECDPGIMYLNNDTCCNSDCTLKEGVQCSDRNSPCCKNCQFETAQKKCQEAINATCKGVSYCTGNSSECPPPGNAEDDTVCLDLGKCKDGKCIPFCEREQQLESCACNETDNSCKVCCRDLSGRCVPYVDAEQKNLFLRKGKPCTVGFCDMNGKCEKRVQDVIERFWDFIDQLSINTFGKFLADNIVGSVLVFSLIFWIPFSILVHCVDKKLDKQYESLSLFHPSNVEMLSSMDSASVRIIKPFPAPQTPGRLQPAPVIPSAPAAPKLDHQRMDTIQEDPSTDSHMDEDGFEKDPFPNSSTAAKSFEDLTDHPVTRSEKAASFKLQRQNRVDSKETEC
method.notes: off-target proteinase inhibition ADAM17
Format: biochemical
condition.set: read-out: Relative enzyme activity ADAM17
Numbers only here, please. The scale is %.

Documented remaining activity at 200 µM of O=C(Cc1c(-c2ccccc2)noc1-c1ccccc1)NO : 9

Documented remaining activity at 200 µM of O=C(Cc1c(-c2ccccc2)n[nH]c1-c1ccccc1)NO : 7

Documented remaining activity at 200 µM of O=C(Cn1c(-c2ccccc2)nc2ccccc21)NO : 56

Documented remaining activity at 200 µM of O=C(Cn1c(-c2ccccc2)nnc1-c1ccccc1)NO : 56

Documented remaining activity at 200 µM of O=C(CCc1c(-c2ccccc2)noc1-c1ccccc1)NO : 24

Documented remaining activity at 200 µM of O=C(CCc1c(-c2ccccc2)n[nH]c1-c1ccccc1)NO : 27

Documented remaining activity at 200 µM of O=C(Cn1c(-c2ccccc2)cc2ccccc21)NO : 56

Documented remaining activity at 200 µM of O=C(Cn1c(-c2ccccc2)ccc1-c1ccccc1)NO : 25
